Data origin: ChEMBL document CHEMBL1287678

Recorded half-life, one value per entry.
Assay: Half life in rat at 0.5 mg/kg, iv and 1 mg/kg, po
Assay type: ADME, organism-based
Conditions: in vivo
endpoint: half-life (h)

Cc1ccc2c(N3CCN(CCc4c(C)ccc5c4CCC(=O)N5C)CC3)cccc2n1	3
Cc1ccc2c(N3CCN(CCc4cccc5c4ccc(=O)n5C)CC3)cccc2n1	1.3
Cc1ccc2c(N3CCN(CCc4c(C)ccc5c4ccc(=O)n5C)[C@H](C)C3)cccc2n1	1.5
Cc1ccc2c(C3CCN(CCc4c(C)ccc5c4ccc(=O)n5C)CC3)cccc2n1	1.4
Cc1ccc2c(N3CCN(CCc4c(C)ccc5c4CCC(=O)N5)CC3)cccc2n1	5.4
